All figures here come from patent US8063229B2.

System: Candida parapsilosis
Assay: In vitro assay for antifungal activity (MIC80)
Format: cell-based
Details: Lodderomyces parapsilosis; concentration at which 80% inhibition of fungus growth occurs; RPMI 1640, alamarBlue, 24 hours, duplicate
reportedProperty: MIC80

C[C@@H](n1cc(CCc2ccc(F)cc2)cn1)[C@](O)(Cn1cncn1)c1ccc(F)cc1F	≤ 0.015 µg/mL
C[C@@H](n1cc(/C=C/c2cnccn2)cn1)[C@](O)(Cn1cncn1)c1ccc(F)cc1F	0.125 µg/mL
C[C@@H](n1cc(-n2ccn(-c3ccc(Cl)cc3)c2=O)cn1)[C@](O)(Cn1cncn1)c1ccc(F)cc1F	≤ 0.015 µg/mL

May I ask what MIC80 has been recorded for C[C@@H](n1cc(/C=C/c2ccc(Cl)cc2)cn1)[C@](O)(Cn1cncn1)c1ccc(F)cc1F ?
≤ 0.015 µg/mL
